Biological target: human c-mpl-Ba/F3 cells (Homo sapiens, UniProt P40238)
Construct: expressed in transfected cells; host or cells: Ba/F3 (murine pro-B cells) expressing human c-mpl
Sequence (P40238 26-635): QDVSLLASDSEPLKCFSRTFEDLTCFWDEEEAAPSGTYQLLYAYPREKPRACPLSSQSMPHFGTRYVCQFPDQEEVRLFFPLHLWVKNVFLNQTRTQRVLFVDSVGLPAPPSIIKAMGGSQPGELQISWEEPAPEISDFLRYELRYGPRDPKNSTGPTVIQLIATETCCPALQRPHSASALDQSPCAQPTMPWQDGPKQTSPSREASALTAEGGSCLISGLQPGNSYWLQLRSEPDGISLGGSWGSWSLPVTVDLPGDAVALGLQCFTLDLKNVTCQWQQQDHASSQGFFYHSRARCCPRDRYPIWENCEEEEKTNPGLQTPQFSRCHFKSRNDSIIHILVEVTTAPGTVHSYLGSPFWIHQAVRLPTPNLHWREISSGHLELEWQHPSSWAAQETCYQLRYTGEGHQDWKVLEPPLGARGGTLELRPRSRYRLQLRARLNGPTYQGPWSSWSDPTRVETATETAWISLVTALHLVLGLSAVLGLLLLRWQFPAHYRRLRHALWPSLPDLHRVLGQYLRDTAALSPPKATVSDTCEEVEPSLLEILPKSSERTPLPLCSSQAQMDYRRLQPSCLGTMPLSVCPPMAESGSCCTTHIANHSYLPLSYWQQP
Assay: Mouse oral administration test: human c-mpl-Ba/F3 cell growth activity of a plasma after oral administration
Assay type: in vivo
Details: male ICR mouse, 3 mg/kg p.o., plasma 2 h after administration, dilution rate 3%; maximum activity of each test compound = 100%

compound | Cell growth activity
CN(Cc1sc(NC(=O)c2cnc(N3CCC(C(=O)O)CC3)c(Cl)c2)nc1-c1cc(Cl)cs1)C1CCC1 [Example 100] | ≧80%
CCCCN(C)Cc1sc(NC(=O)c2cnc(N3CCC(C(=O)O)CC3)c(Cl)c2)nc1-c1cc(Cl)cs1 [Example 71] | ≧80%
C[C@H]1CCCN1Cc1sc(NC(=O)c2cnc(N3CCC(C(=O)O)CC3)c(F)c2)nc1-c1cc(Cl)cs1 [Example 314] | 52%
CN(C)Cc1sc(NC(=O)c2cnc(N3CCC(C(=O)O)CC3)c(Cl)c2)nc1-c1cc(Cl)cs1 [Example 65] | ≧80%

Value source: patent US7361658B2
